Data credit: ChEMBL document CHEMBL4400520

- protocol-summary: Selectivity index, ratio of CC50 for African green monkey Vero cells to MIC for Mycobacterium tuberculosis H37Rv
- Type: toxicity
- details: read-out: Selectivity Index
assay-endpoint: selectivity ratio

Example compounds with recorded selectivity ratio:
| structure-as-smiles | selectivity ratio |
| --- | --- |
| CCOC(=O)c1c(-c2ccccc2)oc2ccc(OCCCN3C(=O)/C(=N\OC)c4cc(OC)ccc43)cc12 | > 4000 |
| CCOC(=O)c1c(-c2ccc(OC)cc2)oc2ccc(OCCCCCCN3C(=O)/C(=N\OC)c4ccccc43)cc12 | > 2000 |
| CNC(=O)c1c(-c2ccc(O)cc2)oc2ccc(O)c(CN3CCCCC3)c12 | > 64000 |

Proceeding to the next compound to report its selectivity ratio.
Query block: Given CCOC(=O)c1c(-c2ccc(OC)cc2)oc2ccc(OCCCCCCN3C(=O)/C(=N\NC(N)=S)c4ccccc43)cc12 , respond with its selectivity ratio.
Result block: > 500
